The reported measurements were obtained from the supplement of paper PMC10567573.

B1: RSPH3 (parent)
chain: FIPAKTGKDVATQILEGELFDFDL

- Variants of: B1
- methodNotes: protein stability index of a GFP-peptide fusion (GPS, HEK-293T) (PSI 1-6); higher = more stable;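 further: lentivirally expressed fusions sorted by FACS into six bins by GFP to DsRed ratio, PSI derived from sequencing read proportions per bin multiplied by bin number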
- testParameters: c terminus: a fixed tail appended
This section presents variants with their documented protein stability index values.
Answer with a number only.

Solved cases (9 shown):
[[record]]
mutation = "V10I"
measuredendpoint = "protein stability index"
observed = 2.95

[[record]]
mutation = "D23M"
measuredendpoint = "protein stability index"
observed = 1.42

[[record]]
mutation = "F20Y"
measuredendpoint = "protein stability index"
observed = 2.01

[[record]]
mutation = "L24Y"
measuredendpoint = "protein stability index"
observed = 1.75

[[record]]
mutation = "F1I"
measuredendpoint = "protein stability index"
observed = 3.89

[[record]]
mutation = "L19M"
measuredendpoint = "protein stability index"
observed = 1.83

[[record]]
mutation = "L19T"
measuredendpoint = "protein stability index"
observed = 2.28

[[record]]
mutation = "A11G"
measuredendpoint = "protein stability index"
observed = 2.04

[[record]]
mutation = "I2Y"
measuredendpoint = "protein stability index"
observed = 2.96


*Q* Which protein stability index is listed for `L19K` ?
*A* 2.21
